pIC50: −log10 of the molar value.
System: catalytic domain of MMP-3 enzyme (Homo sapiens) | Read-out: pIC50
Sequence (P08254 100-272 limits assumed): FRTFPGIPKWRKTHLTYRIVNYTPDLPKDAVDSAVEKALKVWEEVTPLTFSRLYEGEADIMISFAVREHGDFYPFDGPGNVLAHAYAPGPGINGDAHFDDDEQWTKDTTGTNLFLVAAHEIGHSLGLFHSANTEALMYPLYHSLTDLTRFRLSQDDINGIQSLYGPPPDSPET

Illustrative cases are given below, each with its answer.
>  <molecule>
Nc1c(N2CCc3ccc(CNC(=O)c4nc5scc(-c6cccs6)c5c(=O)[nH]4)cc3C2)c(=O)c1=O [2/51]

>  <property.measured>
pIC50

>  <endpoint.result>
> 6.60

$$$$
>  <molecule>
O=C1COc2ccc(CNC(=O)c3nc4ccc(Br)cc4c(=O)[nH]3)cc2N1 [Example 2/21]

>  <property.measured>
pIC50

>  <endpoint.result>
> 6.60

$$$$

List pIC50 for every entry below, keeping the order given.
1. Cc1c(CC(=O)O)sc2nc(C(=O)NCc3ccc4c(c3)NC(=O)CO4)[nH]c(=O)c12 [4/12]
2. O=C1COc2ccc(CNC(=O)c3nc4scc(-c5cccs5)c4c(=O)[nH]3)cc2N1 [2/49]

Result ::
4.70 to 6.60
> 6.60
